Biological target: T1, human PRLR on HEK293/hPRLR cells (Homo sapiens, UniProt P16471)
T1 construct: HA; expressed in transfected cells; host or cells: HEK293
T1 sequence (P16471 25-622): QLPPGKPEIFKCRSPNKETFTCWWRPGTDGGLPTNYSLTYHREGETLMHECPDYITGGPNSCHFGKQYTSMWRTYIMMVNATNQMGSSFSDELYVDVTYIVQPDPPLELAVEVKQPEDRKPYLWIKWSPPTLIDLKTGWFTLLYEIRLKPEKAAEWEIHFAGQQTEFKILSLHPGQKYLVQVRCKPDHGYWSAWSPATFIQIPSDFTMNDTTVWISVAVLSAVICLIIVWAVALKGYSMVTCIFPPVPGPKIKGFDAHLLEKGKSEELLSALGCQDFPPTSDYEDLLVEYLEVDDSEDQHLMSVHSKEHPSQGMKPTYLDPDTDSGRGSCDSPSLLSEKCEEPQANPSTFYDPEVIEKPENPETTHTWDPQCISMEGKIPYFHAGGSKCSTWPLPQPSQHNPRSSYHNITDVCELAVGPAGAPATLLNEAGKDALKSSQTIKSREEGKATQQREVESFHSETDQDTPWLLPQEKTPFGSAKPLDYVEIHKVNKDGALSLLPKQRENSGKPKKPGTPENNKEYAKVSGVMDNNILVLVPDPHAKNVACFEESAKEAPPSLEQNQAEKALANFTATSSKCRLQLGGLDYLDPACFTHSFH
Assay: FACS cell surface binding
PARAMETER MEASURED: FACS Cell Binding (Fold Above Background)

* H1H6953N: anti-PRLR antibody, human IgG1 Fc form of H1M6953N of Table 1; HCVR/LCVR SEQ ID NOs 274/282 (antibody, V domains shown) VH: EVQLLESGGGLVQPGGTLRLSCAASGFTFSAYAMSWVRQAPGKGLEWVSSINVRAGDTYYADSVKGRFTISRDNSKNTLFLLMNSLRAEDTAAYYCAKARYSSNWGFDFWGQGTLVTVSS VL: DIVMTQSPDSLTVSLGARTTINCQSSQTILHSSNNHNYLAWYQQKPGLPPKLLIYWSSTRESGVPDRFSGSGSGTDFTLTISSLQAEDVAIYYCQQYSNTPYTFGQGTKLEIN | 37

Values compiled from patent US10925971B2.
